Hey, just so you know, these numbers are from patent US20250179023A1.

Parameter AUC(0-t): see the listing below.
# test summary: Pharmacokinetics in rats (exposure and oral availability)
# Type: in vivo
# run parameters: male, ICR, rat, plasma, 1 mg/kg, IV (1 mpk)

{"molecule": "Cc1c(NC(=O)c2cc(C3CC3)c(CN[C@H](CO)C(=O)O)cn2)cccc1-c1cccc(NC(=O)c2cc(C3CC3)c(CN[C@H](CO)C(=O)O)cn2)c1C [compound 2, reference compound]", "unit label": "ng·h/mL", "AUC(0-t)": 7640}
{"molecule": "Cc1c(NC(=O)c2cc(C3CC3)c(CNC34CCC(C(=O)O)(CC3)CC4)cn2)cccc1-c1cccc(NC(=O)c2cc(C3CC3)c(CNC34CCC(C(=O)O)(CC3)CC4)cn2)c1C", "unit label": "ng·h/mL", "AUC(0-t)": 2350}
{"molecule": "Cc1c(NC(=O)c2cc(C3CC3)c(CNCC34CCC(C(=O)O)(CC3)C4)cn2)cccc1-c1cccc(NC(=O)c2cc(C3CC3)c(CNCC34CCC(C(=O)O)(CC3)C4)cn2)c1C", "unit label": "ng·h/mL", "AUC(0-t)": 2200}

* * *

# test summary: in vitro
# run parameters: human, Caco-2, pH 7.4

{"molecule": "COCCc1ccc(OCC(O)CNC(C)C)cc1 (centres unmarked) [Metoprolol, metoprolol]", "Papp B→A at 90 min, 10 μM / ×10⁻⁶ cm/s": 31.1}
{"molecule": "CC[C@H]1OC(=O)[C@H](C)[C@@H](O[C@H]2C[C@@](C)(OC)[C@@H](O)[C@H](C)O2)[C@H](C)[C@@H](O[C@@H]2O[C@H](C)C[C@H](N(C)C)[C@H]2O)[C@](C)(O)C[C@@H](C)C(=O)[C@H](C)[C@@H](O)[C@]1(C)O [Erythromycin, erythromycin]", "Papp B→A at 90 min, 10 μM / ×10⁻⁶ cm/s": 21.6}

* * *

# test summary: Caco-2 membrane permeability test
# run parameters: human, Caco-2, pH 7.4
property measured: Papp B→A at 90 min, 10 μM

{"molecule": "COC(=O)[C@H]1CCN(Cc2cnc(C(=O)Nc3cccc(-c4cccc(NC(=O)c5cc(C6CC6)c(CN6CC[C@H](C(=O)OC)C6)cn5)c4C)c3C)cc2C2CC2)C1 [compound 5]", "assay value": "< 0.65 ×10⁻⁶ cm/s"}
{"molecule": "COC(=O)[C@@H](CO)NCc1cnc(C(=O)Nc2cccc(-c3cccc(NC(=O)c4cc(C5CC5)c(CN[C@H](CO)C(=O)OC)cn4)c3C)c2C)cc1C1CC1 [compound 1, reference compound]", "assay value": "< 1.85 ×10⁻⁶ cm/s"}
{"molecule": "Cc1c(NC(=O)c2cc(C3CC3)c(CNCC34CCC(C(=O)O)(CC3)C4)cn2)cccc1-c1cccc(NC(=O)c2cc(C3CC3)c(CNCC34CCC(C(=O)O)(CC3)C4)cn2)c1C [Example 4]", "assay value": "21.7 ×10⁻⁶ cm/s"}
{"molecule": "Cc1c(NC(=O)c2cc(C3CC3)c(CNCC(=O)O)cn2)cccc1-c1cccc(NC(=O)c2cc(C3CC3)c(CNCC(=O)O)cn2)c1C [compound 4]", "assay value": "0.98 ×10⁻⁶ cm/s"}
{"molecule": "Cc1c(NC(=O)c2cc(C3CC3)c(CN3CC[C@H](C(=O)O)C3)cn2)cccc1-c1cccc(NC(=O)c2cc(C3CC3)c(CN3CC[C@H](C(=O)O)C3)cn2)c1C [compound 6]", "assay value": "5.51 ×10⁻⁶ cm/s"}
{"molecule": "Cc1c(NC(=O)c2cc(C3CC3)c(CN[C@H](CO)C(=O)O)cn2)cccc1-c1cccc(NC(=O)c2cc(C3CC3)c(CN[C@H](CO)C(=O)O)cn2)c1C [compound 2, reference compound]", "assay value": "0.36 ×10⁻⁶ cm/s"}
{"molecule": "Cc1c(NC(=O)c2cc(C3CC3)c(CNC34CCC(C(=O)O)(CC3)CC4)cn2)cccc1-c1cccc(NC(=O)c2cc(C3CC3)c(CNC34CCC(C(=O)O)(CC3)CC4)cn2)c1C [Example 1]", "assay value": "16.5 ×10⁻⁶ cm/s"}
